assay: Plasma concentration in Wistar rat lambda carrageenan-induced pleurisy model at 20 mg/kg, ip pretreated for 30 mins followed by lambda carrageenan-challenge measured after 4 hrs by SPE-HPLC analysis; assay type: ADME, organism-based; set-up: dose 20 mg/kg, route intraperitoneal
Entries and their measured concentration at 4 h follow.
OBSERVABLE: concentration at 4 h (ng/mL)

MOLECULE: CS(=O)(=O)Nc1ccncc1Nc1cccc(Cl)c1
OBSERVABLE: concentration at 4 h
OBSERVED_RESULT: 1860

MOLECULE: Cc1ccc(-c2cc(C(F)(F)F)nn2-c2ccc(S(N)(=O)=O)cc2)cc1 [CELECOXIB]
OBSERVABLE: concentration at 4 h
OBSERVED_RESULT: 2680

MOLECULE: Cc1cccc(Nc2cnccc2NS(=O)(=O)C(F)(F)F)c1
OBSERVABLE: concentration at 4 h
OBSERVED_RESULT: 410

MOLECULE: O=S(=O)(Nc1ccncc1Nc1ccc(F)c(Cl)c1)C(F)(F)F
OBSERVABLE: concentration at 4 h
OBSERVED_RESULT: 54600

MOLECULE: O=S(=O)(Nc1ccncc1Nc1ccccc1)C(F)(F)F
OBSERVABLE: concentration at 4 h
OBSERVED_RESULT: 3620
